tested on: JAK1(JH1domain-catalytic); settings: concentration: 1 μM,replicates: in singlicate; n = 1;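 note: KINOMEscan kinase panel screen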
property-label: %Inh (%)
Return type: number; implicit unit %.

%Inh for Cc1ccc(-n2nc(C(C)(C)C)cc2NC(=O)Nc2ccc(OCCN3CCOCC3)c3ccccc23)cc1 [GW839464] ?
0

What value of measured %Inh is listed for "CC(C)N1C(=O)Cc2cc(Nc3ncc(C(F)(F)F)c(NCc4cccc(S(C)(=O)=O)c4)n3)ccc21" ?
48

So what's the measured %Inh for this one? Cl.Cl.NC[C@H](CC1CCCCC1)NC(=O)c1cc(Br)c(-c2ccnc3[nH]ccc23)s1 [GSK1581427]
22

Recorded %Inh of CCn1c(-c2nonc2N)nc2c(C#CC(C)(C)O)nc(OCCN)cc21.Cl.Cl [GSK902056] , please.
13

----------
system: MARK2; settings: concentration: 1 μM,replicates: in singlicate; n = 1
property-label: %Inh
Include the unit right after the number.

I'd like to know its %Inh. The molecule in question is "Cl.Cl.NC[C@H](Cc1ccc(C(F)(F)F)cc1)NC(=O)c1cc(Br)c(-c2ccnc3[nH]ccc23)s1"
0%

Entry CN(C)CC(O)COc1ccc(Nc2nccc(-c3cnn4nc(N5CCOCC5)ccc34)n2)cc1 (centres unmarked) has what %Inh?
20%

Which %Inh is reported for this molecule? "CCN(CC)CCOc1ccc(Nc2ncc3cc(-c4c(Cl)cccc4Cl)c(=O)n(C)c3n2)cc1"
87%

// lookup %Inh for "Cc1ccc2c(-c3ccncc3)c(-c3ccc(F)cc3)nn2c1.Cl"
0%

# get_value(readout='%Inh', item= "Cc1n[nH]c2ccc(-c3cc(OC[C@@H](N)Cc4ccccc4)cnc3-c3ccoc3)cc12.O=C(O)C(F)(F)F.O=C(O)C(F)(F)F" )
0%

Any idea what %Inh was measured for "CC(C)Nc1cc(-c2ccc3c(N)n[nH]c3c2)nc(N)n1" ?
0%

Give the measured %Inh of "NC(=O)c1cc(-c2ccccc2)cc2c(C3CCNCC3)c[nH]c12" .
0%

Sample "Cl.Cl.NC[C@H](CC1CCCCC1)NC(=O)c1cc(Br)c(-c2ccnc3[nH]ccc23)s1" — what was its %Inh?
25%

Sample "CNC(=O)c1ccccc1Sc1ccc2c(/C=C/c3ccccn3)n[nH]c2c1" — what was its %Inh?
35%

What value of %Inh has been recorded for this entry: "Cl.Oc1cc(-c2nc(-c3ccccc3)[nH]c2-c2ccncc2)ccc1Cl"
2%

Please report the recorded %Inh for "Cc1occc1-c1nc(N)c(OC[C@@H](N)Cc2c[nH]c3ccccc23)cc1-c1cc2c(C)n[nH]c2cn1" .
71%

Item under review: "C[C@H]1Oc2cc(cnc2N)-c2c(nn(C)c2C#N)CN(C)C(=O)c2ccc(F)cc21" . Reported %Inh?
9%

# lookup: %Inh of "CCn1c(-c2nonc2N)nc2c(C#CC(C)(C)O)nc(OCCN)cc21.Cl.Cl"
0%

Given the molecule Cl.Cl.Nc1nc(-c2ccc3c(N)n[nH]c3c2)cc(N2CCCC(NC(=O)c3ccccc3)C2)n1 (centres unmarked) , what is its reported %Inh?
0%

----------
tested on: EPHA8; conditions: concentration: 1 μM,replicates: in singlicate; n = 1
Note to self: use Satisfied only for %Inh readings below 20%; a reading exactly at 20% still gets Not satisfied.

Below 20% on %Inh? Entry "Cc1occc1-c1nc(N)c(OC[C@@H](N)Cc2c[nH]c3ccccc23)cc1-c1cc2c(C)n[nH]c2cn1"
Not satisfied

Please indicate whether the reported %Inh of "Cl.Cl.NC[C@H](CC1CCCCC1)NC(=O)c1cc(Br)c(-c2ccnc3[nH]ccc23)s1" is strictly below 20%.
Not satisfied

Could you please tell me whether %Inh recorded for "Cc1cc(C(=O)Nc2ccc(Oc3ccc4nc(NC(=O)C5CC5)cn4n3)cc2)nn1-c1ccccc1" is less than 20%?
Not satisfied

Is %Inh of "CNC(=O)c1ccccc1Sc1ccc2c(/C=C/c3ccccn3)n[nH]c2c1" strictly below 20%?
Satisfied

Hi there! Is %Inh for Cl.Cl.Nc1nc(-c2ccc3c(N)n[nH]c3c2)cc(N2CCCC(NC(=O)c3ccccc3)C2)n1 (centres unmarked) below 20%, do you know?
Satisfied
